- PROTOCOL_CONDITIONS: fish
The label is Met for log10 biotransformation half-life (days) below 0.8 and Not met for log10 biotransformation half-life (days) equal to or exceeding 0.8.

Solved cases (5 shown):
Oc1ccc(Cl)cc1Cc1cc(Cl)ccc1O | Met
O[Si](c1ccccc1)(c1ccccc1)c1ccccc1 | Met
Clc1cc(Cl)c(-c2cccc(Cl)c2Cl)cc1Cl | Not met
O=P(OC(CCl)CCl)(OC(CCl)CCl)OC(CCl)CCl | Met
Clc1c(Cl)c(Cl)c(Cl)c(Cl)c1Cl | Not met

Okay, now this compound:
Consider `Cc1ccc(O)cc1[N+](=O)[O-]` . Does its log10 biotransformation half-life (days) lie strictly below 0.8?
Met
